Source of measurements: ChEMBL document CHEMBL1140506

Reported Ratio IC50 values follow for various compounds
species on record: Homo sapiens; assay: Selectivity for human HDAC4 over human HDAC1
Non-standard residues stand in square brackets, D forms with d. Residues, ends and D or L forms follow the SMILES beside them. Ahp(7-SS(2-pyridyl)) = N[C@@H](CCCCCSSc1ccccn1)C(=O)O; Aib = CC(C)(N)C(=O)O

C[C@@H]1NC(=O)[C@](C)(Cc2ccccc2)NC(=O)[C@H](CCCCCSSc2ccccn2)NC(=O)[C@H]2CCCN2C1=O :: 1.6
CC1(C)NC(=O)[C@H](CCCCCSSc2ccccn2)NC(=O)[C@H]2CCCN2C(=O)[C@H](CCc2ccccc2)NC1=O :: 1.9
CC1(C)NC(=O)[C@H](CCCCCSSc2ccccn2)NC(=O)[C@H]2CCCN2C(=O)[C@H](c2ccccc2)NC1=O :: 1.5
C[C@H]1CN2Cc3ccccc3C[C@@H]2C(=O)N[C@@H](CCCCCSSc2ccccn2)C(=O)NC(C)(C)C(=O)N1 :: 1.1

get_value(item= CC1(C)NC(=O)[C@H](CCCCCSSc2ccccn2)NC(=O)[C@H]2CCCN2C(=O)[C@H](Cc2ccccc2)NC1=O (cyclo([Aib]F[dP][Ahp(7-SS(2-pyridyl))])) , readout=Ratio IC50) returns 2.1

Ratio IC50 reported for this compound CC1(C)NC(=O)[C@H](CCCCCSSc2ccccn2)NC(=O)[C@H]2CCCN2C(=O)[C@H](CO)NC1=O : 1.6

Looking up C[C@@H]1NC(=O)C(C)(C)NC(=O)[C@H](CCCCCSSc2ccccn2)NC(=O)[C@H]2CCCN2C1=O , I see its Ratio IC50 listed as 1.8

Reported Ratio IC50 ( C[C@@H]1NC(=O)[C@]2(CCc3ccccc32)NC(=O)[C@H](CCCCCSSc2ccccn2)NC(=O)[C@H]2CCCN2C1=O ) = 1.4

compound CC1(C)NC(=O)[C@H](CCCCCSSc2ccccn2)NC(=O)[C@H]2CCCN2C(=O)[C@H](CCCc2ccccc2)NC1=O , Ratio IC50 observed: 1.9

The compound listed as C[C@@H]1NC(=O)[C@@]2(CCc3ccccc32)NC(=O)[C@H](CCCCCSSc2ccccn2)NC(=O)[C@H]2CCCN2C1=O has a reported Ratio IC50 of 1.1

Per the record, C[C@@H]1NC(=O)C2(Cc3ccccc3C2)NC(=O)[C@H](CCCCCSSc2ccccn2)NC(=O)[C@H]2CCCN2C1=O has Ratio IC50 of 1.2

The compound C[C@@H]1NC(=O)[C@@](C)(Cc2ccccc2)NC(=O)[C@H](CCCCCSSc2ccccn2)NC(=O)[C@H]2CCCN2C1=O showed Ratio IC50 equal to 2.4

get_value(item= CC1(C)NC(=O)[C@H](CCCCCSSc2ccccn2)NC(=O)[C@H]2CCCN2C(=O)[C@H](COCc2ccccc2)NC1=O , readout=Ratio IC50) returns 2
